# Target Under Test: COMT (Homo sapiens, UniProt P21964)
# Construct: made in house; host or cells: Escherichia coli DH5alphaF'Iq
# Sequence (P21964 1-221 isoform P21964-2): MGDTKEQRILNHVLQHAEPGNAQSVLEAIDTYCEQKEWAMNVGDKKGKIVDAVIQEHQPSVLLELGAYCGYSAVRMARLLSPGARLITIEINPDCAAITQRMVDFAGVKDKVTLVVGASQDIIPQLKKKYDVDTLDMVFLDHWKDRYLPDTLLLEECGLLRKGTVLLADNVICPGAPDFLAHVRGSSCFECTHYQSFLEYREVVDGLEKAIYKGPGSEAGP
# Assay Explanation: Assay of COMT activity: methylation of catechol estrogens by purified recombinant His-COMT
# Assay type: biochemical
# Measurement Context: substrate of COMT, FIG. 9
Quantity Name: pattern of the rates of methylation versus substrate concentration

C[C@]12CC[C@@H]3c4ccc(O)c(O)c4CC[C@H]3[C@@H]1CC[C@@H]2O [Variant 4-OHE2]    sigmoid curve pattern
C[C@]12CC[C@@H]3c4ccc(O)c(O)c4CC[C@H]3[C@@H]1CCC2=O [Variant 4-OHE1]    sigmoid curve pattern
